Please provide measured growth for the entries that follow.
# System: CCRF-CEM leukemia
# assay-protocol: NCI-60 one-dose screen, 48 h (100 = growth as untreated, 0 = no growth, -100 = all killed)
# protocol-conditions: 10 µM unless noted
About 83,000 compounds went through this panel and 20% of them were active in at least one assay; those are over-represented in the sample as a whole.
Kindly answer with a numeric value in %, unit omitted.

Exercise: I am curious: what growth value has been reported for C[C@]12CCc3sc(Nc4ccc(F)cc4F)nc3C1=CC[C@@H]1[C@@H]2CC[C@]2(C)C(=O)CC[C@@H]12 ?
Key: 10.1

Exercise: What do we get for O=C=Nc1ccc(Br)cc1 ?
Key: 103

Exercise: # repeat for CCOC(=O)C1C(C=C(C)C)C1(C)C (stereo unspecified)
Key: 82.6

Exercise: Next entry: Cc1nc2ccccc2c(=O)n1-c1ccccc1F
Key: 99.1

Exercise: Follow-up item: CCOP(=O)(NC)OCC
Key: 93.4

Exercise: Please do the same for CC12CCC3C4CCC(=O)C=C4CCC3C1CC1CC(=O)OC12 (stereo unspecified) as well.
Key: 102

Taken from PubChem BioAssay (NCI).
